Quick reference for IC50 among some substances
assayed-target: S. aureus sortase A (Staphylococcus aureus, UniProt Q2FV99)
Sequence (Q2FV99 whole entry): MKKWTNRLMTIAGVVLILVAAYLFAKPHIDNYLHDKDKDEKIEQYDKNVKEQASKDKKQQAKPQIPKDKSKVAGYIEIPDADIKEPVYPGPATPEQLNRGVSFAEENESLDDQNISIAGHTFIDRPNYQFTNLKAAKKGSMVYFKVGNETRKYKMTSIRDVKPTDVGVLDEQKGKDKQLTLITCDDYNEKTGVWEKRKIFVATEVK
Assay type: biochemical

substance	assayed-target	IC50
Cu-GGHGLPETG	S. aureus sortase A (Staphylococcus aureus, UniProt Q2FV99)	> 100 µM
Cu-GGHLPETG	S. aureus sortase A (Staphylococcus aureus, UniProt Q2FV99)	> 100 µM

Here is the next item to consider.
Query: What value of IC50 on S. aureus sortase A (Staphylococcus aureus, UniProt Q2FV99) does "Cu-GGHGLPET" have?
Response: > 100 µM

----------
assayed-target: stem-loop IIb of HCV IRES RNA
Format: binding, hepatitis C virus (HCV)
run-parameters: stem-loop IIb
Where no end group is shown, it is not given here.
# pKd annotations
Friendly reminder that pKd comes from taking -log10 of the concentration in mol/L.

Query: Dear colleague, I am looking for the recorded pKd of the following substance: "Cu-GGHKYKETDLLILFKDDYFAKKNEERK-amide"
Response: 5.74

Query: # input substance: Cu-GGHYRFK-amide (GGHYRFK-NH2; also: Cu complex) ; wanted: its pKd
Response: 5.16
